Target: Histone deacetylase 2 (Homo sapiens, UniProt Q92769)
Sequence (Q92769 whole entry): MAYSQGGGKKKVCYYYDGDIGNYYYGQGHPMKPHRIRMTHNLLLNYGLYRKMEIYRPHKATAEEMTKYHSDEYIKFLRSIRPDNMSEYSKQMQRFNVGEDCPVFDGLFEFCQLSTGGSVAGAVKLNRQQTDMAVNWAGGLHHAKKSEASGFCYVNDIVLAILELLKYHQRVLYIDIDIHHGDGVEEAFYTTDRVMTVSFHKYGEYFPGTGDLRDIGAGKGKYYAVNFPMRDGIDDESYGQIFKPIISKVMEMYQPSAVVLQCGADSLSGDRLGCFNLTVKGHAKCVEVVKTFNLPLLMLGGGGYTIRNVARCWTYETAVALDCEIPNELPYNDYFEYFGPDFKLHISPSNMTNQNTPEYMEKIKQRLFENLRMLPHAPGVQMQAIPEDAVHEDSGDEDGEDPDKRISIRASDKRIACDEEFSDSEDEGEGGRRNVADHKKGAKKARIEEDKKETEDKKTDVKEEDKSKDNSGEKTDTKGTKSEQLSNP
Assay: Inhibition of full length human recombinant C-terminal His-tagged HDAC2 expressed in baculovirus infected sf9 cells using fluorogenic HDAC substrate 3 after 30 mins by fluorescence assay
readoutType: pIC50
Note on pIC50: it is the negative log10 of concentration, concentration in mol/L.

Example results:
* CCCc1nn(C)c2c(=O)[nH]c(-c3cc(OCc4ccc(C(=O)NO)cc4)ccc3OCC)nc12 | 4.94
* CCCc1nn(C)c2c(=O)[nH]c(-c3cc(C(O)c4ccc(C(=O)NO)cc4)ccc3OCC)nc12 (stereo not given) | 5.95
* CCCc1nn(C)c2c(=O)[nH]c(-c3cc(-c4ccc(C(=O)NO)s4)ccc3OCC)nc12 | 5.32

[in] Identify the reported pIC50 for the following entry. CCCc1nc(C)c2c(=O)[nH]c(-c3cc(Cc4ccc(C(=O)NO)cc4)ccc3OCC)nn12
[out] 5.28

[in] Identify the reported pIC50 for the following entry. CCCc1nn(C)c2c(=O)[nH]c(-c3cc(Cc4ccc(C(=O)NO)cc4)ccc3OCC)nc12
[out] 5.41

[in] Identify the reported pIC50 for the following entry. CCCc1nn(C)c2c(=O)[nH]c(-c3cc(C(=O)c4ccc(C(=O)NO)s4)ccc3OCC)nc12
[out] 6.10

[in] Identify the reported pIC50 for the following entry. CCCc1nn(C)c2c(=O)[nH]c(-c3cc(Cc4ccc(C(=O)NO)s4)ccc3OCC)nc12
[out] 5.43

[in] Identify the reported pIC50 for the following entry. CCCc1nn(C)c2c(=O)[nH]c(-c3cc(C(OC)c4ccc(C(=O)NO)cc4)ccc3OCC)nc12 (stereo not given)
[out] 5.95

[in] Identify the reported pIC50 for the following entry. CCCc1nn(C)c2c(=O)[nH]c(-c3cc(Cc4ccc(C(=O)NO)o4)ccc3OCC)nc12
[out] 4.76

[in] Identify the reported pIC50 for the following entry. CCCc1nn(C)c2c(=O)[nH]c(-c3cc(Cc4ccc(C(=O)NO)cc4F)ccc3OCC)nc12
[out] 4.84

[in] Identify the reported pIC50 for the following entry. CCCc1nn(C)c2c(=O)[nH]c(-c3cc(-c4ccc(C(=O)NO)cc4)ccc3OCC)nc12
[out] 5.59

[in] Identify the reported pIC50 for the following entry. CCCc1nc(C)c2c(=O)[nH]c(-c3cc(Cc4ccc(C(=O)NO)s4)ccc3OCC)nn12
[out] 5.36

* * *

Molecular target: Protein deacetylase HDAC6 (Homo sapiens, UniProt Q9UBN7)
Sequence (Q9UBN7 whole entry): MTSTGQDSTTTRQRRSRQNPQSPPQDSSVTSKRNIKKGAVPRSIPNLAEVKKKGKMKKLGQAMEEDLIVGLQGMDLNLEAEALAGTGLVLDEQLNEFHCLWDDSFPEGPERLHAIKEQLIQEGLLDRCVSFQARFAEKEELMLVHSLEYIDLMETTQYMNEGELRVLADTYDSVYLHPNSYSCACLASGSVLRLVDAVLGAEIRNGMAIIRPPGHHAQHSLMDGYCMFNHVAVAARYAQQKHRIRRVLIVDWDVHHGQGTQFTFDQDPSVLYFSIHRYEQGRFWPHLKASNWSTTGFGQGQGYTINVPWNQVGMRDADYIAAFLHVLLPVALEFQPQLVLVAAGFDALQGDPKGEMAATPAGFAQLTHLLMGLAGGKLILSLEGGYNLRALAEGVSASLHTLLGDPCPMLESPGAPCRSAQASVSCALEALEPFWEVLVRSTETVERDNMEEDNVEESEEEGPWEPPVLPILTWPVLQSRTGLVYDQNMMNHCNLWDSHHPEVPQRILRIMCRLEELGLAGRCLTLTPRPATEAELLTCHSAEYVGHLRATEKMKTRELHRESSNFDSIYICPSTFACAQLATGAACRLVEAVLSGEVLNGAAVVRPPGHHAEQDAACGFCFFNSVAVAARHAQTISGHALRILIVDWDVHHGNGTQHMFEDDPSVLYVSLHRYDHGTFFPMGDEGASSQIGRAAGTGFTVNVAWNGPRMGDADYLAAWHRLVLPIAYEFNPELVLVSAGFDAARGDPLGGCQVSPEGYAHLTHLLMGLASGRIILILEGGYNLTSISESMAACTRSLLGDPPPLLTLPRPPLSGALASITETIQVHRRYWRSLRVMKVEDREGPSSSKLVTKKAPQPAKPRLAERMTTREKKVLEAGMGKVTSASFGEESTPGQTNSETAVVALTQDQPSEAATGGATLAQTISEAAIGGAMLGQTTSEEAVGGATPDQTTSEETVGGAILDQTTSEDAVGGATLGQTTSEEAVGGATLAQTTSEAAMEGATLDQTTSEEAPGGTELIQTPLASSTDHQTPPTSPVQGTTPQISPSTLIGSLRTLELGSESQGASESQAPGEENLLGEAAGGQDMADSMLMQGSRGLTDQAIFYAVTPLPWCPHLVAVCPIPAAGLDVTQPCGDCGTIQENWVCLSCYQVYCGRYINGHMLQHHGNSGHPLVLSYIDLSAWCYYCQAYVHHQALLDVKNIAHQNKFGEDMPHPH
Experiment: Inhibition of HDAC6 (unknown origin)
readoutType: pIC50
Note on pIC50: it is the negative log10 of concentration, concentration in mol/L.

[in] Identify the reported pIC50 for the following entry. CCCc1nc(C)c2c(=O)[nH]c(-c3cc(CC4CC(C(=O)NO)C4)ccc3OCC)nn12 (stereo unspecified)
[out] 6.96

* * *

Target: Histone deacetylase 1 (Homo sapiens)
Sequence (Q13547 whole entry): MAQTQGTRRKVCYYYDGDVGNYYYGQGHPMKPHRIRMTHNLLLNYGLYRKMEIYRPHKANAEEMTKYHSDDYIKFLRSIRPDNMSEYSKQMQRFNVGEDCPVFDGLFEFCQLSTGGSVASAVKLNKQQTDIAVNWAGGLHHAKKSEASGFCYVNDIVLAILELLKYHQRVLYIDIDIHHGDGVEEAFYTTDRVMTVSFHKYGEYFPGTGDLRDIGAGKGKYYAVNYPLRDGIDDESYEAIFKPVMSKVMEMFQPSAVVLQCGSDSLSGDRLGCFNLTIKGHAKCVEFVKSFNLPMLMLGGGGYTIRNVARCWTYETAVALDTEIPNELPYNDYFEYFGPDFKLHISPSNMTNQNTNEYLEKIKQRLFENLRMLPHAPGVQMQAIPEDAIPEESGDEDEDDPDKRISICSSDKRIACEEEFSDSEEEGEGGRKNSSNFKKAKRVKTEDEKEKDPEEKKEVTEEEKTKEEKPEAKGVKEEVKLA
Test: Inhibition of HDAC1 (unknown origin)
readoutType: pIC50
Note on pIC50: it is the negative log10 of concentration, concentration in mol/L.

[in] Identify the reported pIC50 for the following entry. CCCc1nc(C)c2c(=O)[nH]c(-c3cc(CC4CC(C(=O)NO)C4)ccc3OCC)nn12 (stereo unspecified)
[out] 6.54

* * *

Test: Cytotoxicity against Tg2576 mouse primary neurons after 72 hrs by ATP luminescence assay
Assay type: cell-based, Neuron
Details: read-out: LC50
readoutType: CC50 at 72 h (µM)
Express your answer in µM, writing the number without its unit.

[in] Identify the reported CC50 at 72 h for the following entry. CCCc1nn(C)c2c(=O)[nH]c(-c3cc(Cc4ccc(C(=O)NO)s4)ccc3OCC)nc12
[out] 46.3

* * *

Target: Histone deacetylase 8 (Homo sapiens)
Sequence (Q9BY41 whole entry): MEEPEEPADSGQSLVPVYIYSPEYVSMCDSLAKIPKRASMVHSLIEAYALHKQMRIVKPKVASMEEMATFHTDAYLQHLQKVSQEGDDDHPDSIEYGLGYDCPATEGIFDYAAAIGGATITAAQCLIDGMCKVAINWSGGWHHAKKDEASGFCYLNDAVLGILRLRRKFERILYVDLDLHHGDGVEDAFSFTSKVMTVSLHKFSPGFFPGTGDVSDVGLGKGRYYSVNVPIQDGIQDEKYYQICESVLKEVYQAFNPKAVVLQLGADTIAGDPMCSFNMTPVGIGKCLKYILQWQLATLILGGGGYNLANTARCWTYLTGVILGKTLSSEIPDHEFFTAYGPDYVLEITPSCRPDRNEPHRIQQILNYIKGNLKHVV
readoutType: IC50

[in] Identify the reported IC50 for the following entry. CCCc1nn(C)c2c(=O)[nH]c(-c3cc(Cc4ccc(C(=O)NO)s4)ccc3OCC)nc12
[out] > 10 µM

* * *

Biological target: Histone deacetylase 3/Nuclear receptor corepressor 2 (HDAC3/NCoR2) (Homo sapiens)
Experiment: Inhibition of full length human recombinant C-terminal His-tagged HDAC3/N-terminal GST-tagged NCOR2 (95 to 489 residues) expressed in baculovirus infected sf9 cells using fluorogenic HDAC substrate 3 after 30 mins by fluorescence assay
readoutType: pIC50
Note on pIC50: it is the negative log10 of concentration, concentration in mol/L.

• CCCc1nn(C)c2c(=O)[nH]c(-c3cc(Cc4ccc(C(=O)NO)s4)ccc3OCC)nc12 = 5.68

Let us examine a further case.
[in] Identify the reported pIC50 for the following entry. CCCc1nn(C)c2c(=O)[nH]c(-c3cc(Cc4ccc(C(=O)NO)cc4)ccc3OCC)nc12
[out] 5.87

* * *

Molecular target: Protein deacetylase HDAC6 (Homo sapiens)
Experiment: Inhibition of full length human recombinant N-terminal GST-tagged HDAC6 expressed in baculovirus infected sf9 cells using fluorogenic HDAC substrate 3 after 30 mins by fluorescence assay
readoutType: pIC50
Note on pIC50: it is the negative log10 of concentration, concentration in mol/L.

Example results:
* CCCc1nn(C)c2c(=O)[nH]c(-c3cc(C4=CCC(C(=O)NO)CC4)ccc3OCC)nc12 (centres undefined) | 6.47
* CCCc1nn(C)c2c(=O)[nH]c(-c3cc(-c4ccc(CC(=O)NO)cc4)ccc3OCC)nc12 | 6.09

[in] Please indicate recorded pIC50 of CCCc1nc(C)c2c(=O)[nH]c(-c3cc(Cc4ccc(C(=O)NO)cc4)ccc3OCC)nn12 measured with Protein deacetylase HDAC6 (Homo sapiens).
[out] 6.59

[in] Please indicate recorded pIC50 of CCCc1nn(C)c2c(=O)[nH]c(-c3cc(C(O)c4ccc(C(=O)NO)cc4)ccc3OCC)nc12 (centres undefined) measured with Protein deacetylase HDAC6 (Homo sapiens).
[out] 7.05

[in] Please indicate recorded pIC50 of CCCc1nn(C)c2c(=O)[nH]c(-c3cc(Cc4ccc(C(=O)NO)s4)ccc3OCC)nc12 measured with Protein deacetylase HDAC6 (Homo sapiens).
[out] 7.82

[in] Please indicate recorded pIC50 of CCCc1nn(C)c2c(=O)[nH]c(-c3cc(Cc4ccc(C(=O)NO)cc4F)ccc3OCC)nc12 measured with Protein deacetylase HDAC6 (Homo sapiens).
[out] 7.06

[in] Please indicate recorded pIC50 of CCCc1nn(C)c2c(=O)[nH]c(-c3cc(Cc4ccc(C(=O)NO)cc4)ccc3OCC)nc12 measured with Protein deacetylase HDAC6 (Homo sapiens).
[out] 7.21

[in] Please indicate recorded pIC50 of CCCc1nn(C)c2c(=O)[nH]c(-c3cc(N4CCC(C(=O)NO)CC4)ccc3OCC)nc12 measured with Protein deacetylase HDAC6 (Homo sapiens).
[out] 5.93

[in] Please indicate recorded pIC50 of CCCc1nn(C)c2c(=O)[nH]c(-c3cc(Cc4ccc(C(=O)NO)o4)ccc3OCC)nc12 measured with Protein deacetylase HDAC6 (Homo sapiens).
[out] 6.77

* * *

Biological target: Histone deacetylase 1 (Homo sapiens)
Assay: Inhibition of full length human recombinant C-terminal FLAG/His-tagged HDAC1 expressed in baculovirus infected sf9 cells using fluorogenic HDAC substrate 3 after 4 hrs fluorescence assay
readoutType: IC50 (nM)
Express your answer in nM, writing the number without its unit.

[in] Identify the reported IC50 for the following entry. CCCc1nn(C)c2c(=O)[nH]c(-c3cc(Cc4ccc(C(=O)NO)s4)ccc3OCC)nc12
[out] 841

* * *

Attribute: Papp at 18 h, 50 µM
Assay: Effective permeability of the compound at 50 uM after 18 hrs by UV spectroscopy based PAMPA
Format: ADME
Details: read-out: Peff
Express your answer in ×10⁻⁶ cm/s, writing the number without its unit.

Example results:
* CCCc1nn(C)c2c(=O)[nH]c(-c3cc(-c4ccc(C(=O)NO)s4)ccc3OCC)nc12 | 2.82
* CCCc1nn(C)c2c(=O)[nH]c(-c3cc(Cc4ccc(C(=O)NO)cc4F)ccc3OCC)nc12 | 3.7
* CCCc1nc(C)c2c(=O)[nH]c(-c3cc(Cc4ccc(C(=O)NO)cc4)ccc3OCC)nn12 | 1.86

[in] Identify the reported Papp at 18 h, 50 µM for the following entry. CCCc1nc(C)c2c(=O)[nH]c(-c3cc(Cc4ccc(C(=O)NO)s4)ccc3OCC)nn12
[out] 1.6
